Test: Clearance (CL) / pharmacokinetics
Format: in vivo, mice
Details: Table 3
Measured CL by item
Kindly provide the numeric value in mL/min/kg only, without the unit symbol.

CO[C@H](C(=NOCCNC(=O)c1[nH]c2ccc(Cl)cc2c1-c1ccc(Cl)cc1)[C@@H](O)[C@@H](C)O)[C@@H]1Cc2cc3cc(O[C@H]4C[C@@H](O[C@H]5C[C@@H](O)[C@H](O)[C@@H](C)O5)[C@H](O)[C@@H](C)O4)c(C)c(O)c3c(O)c2C(=O)[C@H]1O[C@H]1C[C@@H](O[C@H]2C[C@@H](O[C@H]3C[C@](C)(O)[C@H](O)[C@@H](C)O3)[C@@H](O)[C@@H](C)O2)[C@H](O)[C@@H](C)O1	0.383
COC(C(=NOCCNC(=O)c1[nH]c2ccc(Cl)cc2c1-c1ccccc1)C(O)C(C)O)C1Cc2cc3cc(OC4CC(OC5CC(O)C(O)C(C)O5)C(O)C(C)O4)c(C)c(O)c3c(O)c2C(=O)C1OC1CC(OC2CC(OC3CC(C)(O)C(O)C(C)O3)C(O)C(C)O2)C(O)C(C)O1 (stereo not shown)	0.35

Q) CL for COC(C(=NOCCNC(=O)c1[nH]c2ccc(Cl)cc2c1-c1cccs1)C(O)C(C)O)C1Cc2cc3cc(OC4CC(OC5CC(O)C(O)C(C)O5)C(O)C(C)O4)c(C)c(O)c3c(O)c2C(=O)C1OC1CC(OC2CC(OC3CC(C)(O)C(O)C(C)O3)C(O)C(C)O2)C(O)C(C)O1 (stereo not shown) ?
A) 0.317

Q) Moving on to CO[C@H](C(=NOCCNC(=O)c1[nH]c2ccc(C(F)(F)F)cc2c1-c1ccc(Cl)cc1)[C@@H](O)[C@@H](C)O)[C@@H]1Cc2cc3cc(O[C@H]4C[C@@H](O[C@H]5C[C@@H](O)[C@H](O)[C@@H](C)O5)[C@H](O)[C@@H](C)O4)c(C)c(O)c3c(O)c2C(=O)[C@H]1O[C@H]1C[C@@H](O[C@H]2C[C@@H](O[C@H]3C[C@](C)(O)[C@H](O)[C@@H](C)O3)[C@@H](O)[C@@H](C)O2)[C@H](O)[C@@H](C)O1
A) 0.167
